- Tested on: Vero
- experiment-notes: Cytotoxic activity against african green monkey (Cercopithecus aethiops) kidney epithelial cells (VERO)
- Format: functional, cell-based
- recorded-conditions: Chlorocebus sabaeus
measured-quantity: EC50 (nM)
Report the value in nM with no unit label.

Item CCCCCC[C@@H](CCC[C@H](OC(C)=O)[C@H]1CC[C@H]([C@H]2CC[C@H]([C@@H](CCCCCCCCCCCCC3=C[C@H](C)OC3=O)OC(C)=O)O2)O1)OC[C@H]1O[C@@H](O)[C@H](O)[C@@H](O)[C@@H]1O has what recorded EC50?
340

Next up: CCCCCC[C@H](O)CCC[C@H](O)[C@H]1CC[C@H]([C@H]2CC[C@H]([C@H](O)CCCCCCCCCCCCC3C[C@H](C)OC3=O)O2)O1 (stereo partly specified)
16

Next up: CCCCCC[C@@H](CCC[C@H](OC(C)=O)[C@H]1CC[C@H]([C@H]2CC[C@H]([C@@H](CCCCCCCCCCCCC3=C[C@H](C)OC3=O)OC(C)=O)O2)O1)OC[C@H]1O[C@@H](OC(C)=O)[C@H](OC(C)=O)[C@@H](OC(C)=O)[C@@H]1OC(C)=O
20

Next up: CCCCCC[C@H](O)CCC[C@H](OC[C@H]1O[C@@H](O)[C@H](O)[C@@H](O)[C@@H]1O)[C@H]1CC[C@H]([C@H]2CC[C@H]([C@@H](CCCCCCCCCCCCC3=C[C@H](C)OC3=O)OC[C@H]3O[C@@H](O)[C@H](O)[C@@H](O)[C@@H]3O)O2)O1
1050

Next up: CCCCCC[C@H](O)CCC[C@H](O)[C@H]1CC[C@H]([C@H]2CC[C@H]([C@H](O)CCCCCCCCCCCCC3=C[C@H](C)OC3=O)O2)O1
16
